Where a name gives a salt, the structure may show the parent alone.
measurementLabel: melting point

Here's what some known entries look like.
CC(C)(N)c1ccc(-c2ccc3[nH]ncc3c2-c2ccno2)cc1 (as salt: hydrochloride) [Compound 5-68, dihydrochloride]; 256 to 258 °C (dec.)
CC(C)(N)c1ccc(-c2ccc3[nH]ncc3c2N2CCCC2)cc1 (as salt: hydrochloride) [Compound 5-42, trihydrochloride]; 218 to 224 °C (dec.)
CCCCOc1c(-c2ccc(C(C)(C)N)cc2)ccc2[nH]ncc12 (as salt: hydrochloride) [Compound 5-55, dihydrochloride]; 227 to 229 °C (dec.)
CCC(N)(CC)c1ccc(-c2ccc3[nH]ncc3c2OC)nc1 (as salt: hydrochloride) [Compound 5-51, trihydrochloride]; 204 to 206 °C (dec.)
CC(C)(N)c1ccc(-c2ccc3[nH]ncc3c2C2CC2)nc1 (as salt: hydrochloride) [Compound 5-29, trihydrochloride]; 209 to 213 °C (dec.)

With those in mind, consider the next compound.
IN: Return reported melting point; argument: CC(=O)n1ncc2cc(-c3ccc(C(C)(C)N)cc3)ccc21 (as salt: hydrochloride) [Compound 5-2, dihydrochloride]
OUT: 247 to 250 °C
